# SYSTEM TESTED: HLA-A*03:01
# EXPERIMENTAL PROTOCOL: IEDB peptide-MHC binding, purified MHC/competitive/fluorescence; bounds were set here for any values at or beyond the usual limits of such assays
# EXPERIMENTAL CONDITIONS: source organism: Sudan ebolavirus
ENDPOINT LABEL: IC50

# example entries with known answers
ITKGRISDR    66.3 µM
QTNTKATGK    14 µM
RKYSDLVPK    49.1 µM

IC50 lookup needed for "SSYYATSYL" , thanks.
18.5 µM

Same again, this time with "TYTILNRKA"
≥ 94.9 µM

###

# SYSTEM TESTED: HLA-A*02:11
# EXPERIMENTAL PROTOCOL: IEDB peptide-MHC binding, purified MHC/direct/fluorescence; filed as Kd, often an IC50 or EC50 that approximates it; bounds were set here for any values at or beyond the usual limits of such assays
# EXPERIMENTAL CONDITIONS: source organism: Influenza A virus(A/swine/Henan/8/2004(H9N2))
ENDPOINT LABEL: pKd
pKd here is simply -log10 of the concentration when that concentration is written in mol/L.

pKd lookup needed for "SLPPNFSSL" , thanks.
7.62
